Just for reference, ChEMBL document CHEMBL2069238 is where these values come from.

Target: Mitogen-activated protein kinase 10 (Homo sapiens, UniProt P53779)
Sequence (P53779 whole entry): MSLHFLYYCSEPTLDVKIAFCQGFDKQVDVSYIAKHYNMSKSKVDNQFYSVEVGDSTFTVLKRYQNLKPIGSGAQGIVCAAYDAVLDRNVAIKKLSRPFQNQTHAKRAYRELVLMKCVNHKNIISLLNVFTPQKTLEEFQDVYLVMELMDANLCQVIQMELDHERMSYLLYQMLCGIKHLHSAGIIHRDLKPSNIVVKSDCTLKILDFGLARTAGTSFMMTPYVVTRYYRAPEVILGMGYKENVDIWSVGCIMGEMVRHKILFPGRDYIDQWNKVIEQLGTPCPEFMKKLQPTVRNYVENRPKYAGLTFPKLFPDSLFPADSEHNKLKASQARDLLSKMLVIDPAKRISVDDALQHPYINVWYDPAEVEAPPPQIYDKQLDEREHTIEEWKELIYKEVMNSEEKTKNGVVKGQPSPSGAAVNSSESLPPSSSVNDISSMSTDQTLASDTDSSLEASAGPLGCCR
Assay: Inhibition of JNK3
pIC50: −log10 of the molar value.
quantity: pIC50

structure_smiles_string=CN1CCN(CCCOc2ccc(N3C(=O)/C(=C/c4ccc(Oc5ccc(C(N)=O)cc5)cc4)SC3=S)cc2)CC1 target_system="Mitogen-activated protein kinase 10 (Homo sapiens, UniProt P53779)" experimental_value="< 4.52"
structure_smiles_string=CN1CCN(CCCOc2ccc(N3C(=O)/C(=C/c4ccc(Oc5cccc(C(N)=O)c5)cc4)SC3=S)cc2)CC1 target_system="Mitogen-activated protein kinase 10 (Homo sapiens, UniProt P53779)" experimental_value="< 4.52"

Here's the next entry for you.
Return reported pIC50; argument: NC(=O)c1ccc(Oc2ccc(/C=C3\SC(=S)N(c4ccc(OCCCN5CCCC5)cc4)C3=O)cc2)cc1
< 4.52
